Assay: Solubility in water
readout: solubility (mg/mL)
Give bare numbers, in mg/mL.

Count: 8. Required value per item: solubility.
1. O=C1c2cccc3c2c(cc2cnccc23)C(=O)N1CCCCNCCCN1C(=O)c2cccc3c2c(cc2cnccc23)C1=O [Example 15]
2. O=C1c2cccc3cc([N+](=O)[O-])cc(c23)C(=O)N1CCCCNCCCN1C(=O)c2cccc3c2c(cc2cccnc23)C1=O [Example 124]
3. CS(=O)(=O)O.Cc1c2c3c(cccc3c3ccccc13)C(=O)N(CCCCNCCCN1C(=O)c3cccc4c3c(c(C)c3ccccc34)C1=O)C2=O [Example 43]
4. CS(=O)(=O)O.O=C1c2cc([N+](=O)[O-])cc3c2c(cc2cccnc23)C(=O)N1CCCCNCCCN1C(=O)c2cc([N+](=O)[O-])cc3c2c(cc2cccnc23)C1=O [Example 5]
5. Cc1cnc2c(c1)cc1c3c(cc([N+](=O)[O-])cc32)C(=O)N(CCNCCNCCN2C(=O)c3cc([N+](=O)[O-])cc4c3c(cc3cc(C)cnc34)C2=O)C1=O [Example 23]
6. CS(=O)(=O)O.CS(=O)(=O)O.C[C@@H](CNCCNC[C@H](C)N1C(=O)c2cc([N+](=O)[O-])cc3c2c(cc2cccnc23)C1=O)N1C(=O)c2cc([N+](=O)[O-])cc3c2c(cc2cccnc23)C1=O [Example 7]
7. CS(=O)(=O)O.O=C1c2cccc3c2c(cc2ccoc23)C(=O)N1CCCCNCCCN1C(=O)c2cccc3c2c(cc2ccoc23)C1=O [Example 80]
8. CS(=O)(=O)O.CS(=O)(=O)O.Nc1cc2c3c(cc4cccnc4c3c1)C(=O)N(CCCNCCCCN1C(=O)c3cccc4cc([N+](=O)[O-])cc(c34)C1=O)C2=O [Example 112]

Response:
1. 0.81
2. 0.29
3. 0.04
4. 0.06
5. 0.12
6. 0.68
7. 0.42
8. 7.5

Count: 8. Required value per item: solubility.
1. CS(=O)(=O)O.O=C1c2cccc3c2c(cc2ccc(F)cc23)C(=O)N1CCCCNCCCN1C(=O)c2cccc3c2c(cc2ccc(F)cc23)C1=O [Example 56]
2. CS(=O)(=O)O.CS(=O)(=O)O.Cc1cnc2c(c1)cc1c3c(cc([N+](=O)[O-])cc32)C(=O)N([C@H](C)CNCCNC[C@@H](C)N2C(=O)c3cccc4cc([N+](=O)[O-])cc(c34)C2=O)C1=O [Example 117]
3. CS(=O)(=O)O.Cc1cccc2c1cc1c3c(cccc32)C(=O)N(CCCCNCCCN2C(=O)c3cccc4c3c(cc3c(C)cccc34)C2=O)C1=O [Example 42]
4. CS(=O)(=O)O.Cc1ccc2c(C)c3c4c(cccc4c2c1)C(=O)N(CCCCNCCCN1C(=O)c2cccc4c2c(c(C)c2ccc(C)cc24)C1=O)C3=O [Example 46]
5. CC[C@H](CNCCNC[C@@H](CC)N1C(=O)c2cc([N+](=O)[O-])cc3c2c(cc2cc(C)cnc23)C1=O)N1C(=O)c2cc([N+](=O)[O-])cc3c2c(cc2cc(C)cnc23)C1=O [Example 24]
6. CS(=O)(=O)O.O=C1c2cccc3c2c(cc2cccnc23)C(=O)N1CCCCNCCCN1C(=O)c2cccc3c2c(cc2cccnc23)C1=O [Example 1]
7. CS(=O)(=O)O.CS(=O)(=O)O.CS(=O)(=O)O.O=C1c2cccc3c2c(cc2ccncc23)C(=O)N1CCCCNCCCN1C(=O)c2cccc3c2c(cc2ccncc23)C1=O [Example 14]
8. CS(=O)(=O)O.CS(=O)(=O)O.O=C1c2cc([N+](=O)[O-])cc3c2c(cc2ncccc23)C(=O)N1CCNCCNCCN1C(=O)c2cc([N+](=O)[O-])cc3c2c(cc2ncccc23)C1=O [Example 19]

Response:
[0.04, 8.7, 0.06, 0.04, 0.15, 2.3, 0.9, 0.95]

Query: Look up solubility for this compound: CS(=O)(=O)O.O=C1c2ccccc2C(=O)c2c1cc1c3c(cccc23)C(=O)N(CCCCNCCCN2C(=O)c3cccc4c5c(cc(c34)C2=O)C(=O)c2ccccc2C5=O)C1=O [Example 100]
Response: 0.16

---

Tested on: Murine leukemia L1210 cells
Experiment: In vitro growth inhibition of L1210 cells (MTT, 72 hr)
Type: cell-based
Conditions: Mus musculus; L1210 cells, 72 hr, MTT; read-out: L1210 IC50
readout: log10 IC50 (log10 of the value in µg/mL)
Remember, log10 of IC50, in µg/mL.

compound	experimental_value
CS(=O)(=O)O.O=C1c2cccc3c2c(cc2occc23)C(=O)N1CCCCNCCCN1C(=O)c2cccc3c2c(cc2occc23)C1=O [Example 90]	-1.89
CS(=O)(=O)O.CS(=O)(=O)O.Nc1cc2c3c(cc4cccnc4c3c1)C(=O)N(CCCNCCCCN1C(=O)c3cccc4cc([N+](=O)[O-])cc(c34)C1=O)C2=O [Example 112]	-1.70
CS(=O)(=O)O.CS(=O)(=O)O.CS(=O)(=O)O.O=C1c2cccc3c2c(cc2ccncc23)C(=O)N1CCCCNCCCN1C(=O)c2cccc3c2c(cc2ccncc23)C1=O [Example 14]	-2.10
O=C1c2cccc3cc([N+](=O)[O-])cc(c23)C(=O)N1CCCCNCCCN1C(=O)c2cccc3c2c(cc2cccnc23)C1=O [Example 124]	-1.96
CS(=O)(=O)O.CS(=O)(=O)O.C[C@H](CNCCNC[C@@H](C)N1C(=O)c2cccc3c2c(cc2cnccc23)C1=O)N1C(=O)c2cccc3cc([N+](=O)[O-])cc(c23)C1=O [Example 113]	-2.10
CS(=O)(=O)O.CS(=O)(=O)O.C[C@H](CNCCNC[C@@H](C)N1C(=O)c2cccc3c2c(cc2cccnc23)C1=O)N1C(=O)c2cccc3cc([N+](=O)[O-])cc(c23)C1=O [Example 110]	-0.74
CS(=O)(=O)O.Cc1nc2cc3c4c(cccc4c2s1)C(=O)N(CCCCNCCCN1C(=O)c2cccc4c2c(cc2nc(C)sc24)C1=O)C3=O [Example 82]	-1.09
Cc1cnc2c(c1)cc1c3c(cc([N+](=O)[O-])cc32)C(=O)N(CCCNCCN2C(=O)c3cc([N+](=O)[O-])cc4c3c(cc3cc(C)cnc34)C2=O)C1=O [Example 22]	-1.70

Count: 3. Required value per item: log10 IC50.
1. CS(=O)(=O)O.CS(=O)(=O)O.CS(=O)(=O)O.Cc1nc2cc3c4c(cccc4c2[nH]1)C(=O)N(CCCCNCCCN1C(=O)c2cccc4c2c(cc2nc(C)[nH]c24)C1=O)C3=O [Example 81]
2. CC[C@H](CNCCNC[C@@H](CC)N1C(=O)c2cc([N+](=O)[O-])cc3c2c(cc2cc(C)cnc23)C1=O)N1C(=O)c2cc([N+](=O)[O-])cc3c2c(cc2cc(C)cnc23)C1=O [Example 24]
3. CS(=O)(=O)O.O=C1c2cccc3c2c(cc2ccoc23)C(=O)N1CCCCNCCCN1C(=O)c2cccc3c2c(cc2ccoc23)C1=O [Example 80]

Response:
[-0.70, -0.89, -0.41]

Count: 2. Required value per item: log10 IC50.
1. CS(=O)(=O)O.CS(=O)(=O)O.Cc1nc2cc3c4c(cccc4c2[nH]1)C(=O)N(CCCNCCCCN1C(=O)c2cccc4cc([N+](=O)[O-])cc(c24)C1=O)C3=O [Example 140]
2. CS(=O)(=O)O.Cc1cnc2c(c1)cc1c3c(cccc32)C(=O)N(CCCCNCCCN2C(=O)c3cccc4c3c(cc3cc(C)cnc34)C2=O)C1=O [Example 10]

Response:
-0.37
-0.23

Query: Look up log10 IC50 for this compound: Cc1cnc2c(c1)cc1c3c(cc([N+](=O)[O-])cc32)C(=O)N(CCNCCNCCN2C(=O)c3cc([N+](=O)[O-])cc4c3c(cc3cc(C)cnc34)C2=O)C1=O [Example 23]
Response: -1.38

---

Test system: Clone A human colon cancer cells
Assay: In vitro growth inhibition of Clone A cells (MTT, 72 hr)
Type: cell-based
Conditions: 72 h, read-out: Clone A IC50
IC50 vs 0.2 mg/L: less than gives satisfied; not less than gives not satisfied.

CS(=O)(=O)O.Cc1ccc2cc3c4c(cccc4c2c1)C(=O)N(CCCCNCCCN1C(=O)c2cccc4c2c(cc2ccc(C)cc24)C1=O)C3=O not satisfied
Cc1cnc2c(c1)cc1c3c(cc([N+](=O)[O-])cc32)C(=O)N(C[C@H](C)NCCN[C@@H](C)CN2C(=O)c3cc([N+](=O)[O-])cc4c3c(cc3cc(C)cnc34)C2=O)C1=O satisfied
CS(=O)(=O)O.CS(=O)(=O)O.O=C1c2cc([N+](=O)[O-])cc3c2c(cc2ncccc23)C(=O)N1CCNCCNCCN1C(=O)c2cc([N+](=O)[O-])cc3c2c(cc2ncccc23)C1=O satisfied
CS(=O)(=O)O.CS(=O)(=O)O.C[C@@H](CNCCNC[C@H](C)N1C(=O)c2cccc3c2c(cc2ccc([N+](=O)[O-])cc23)C1=O)N1C(=O)c2cccc3c2c(cc2ccc([N+](=O)[O-])cc23)C1=O satisfied
O=C1c2cccc3c2c(c(-c2ccccc2)c2ccccc23)C(=O)N1CCCCNCCCN1C(=O)c2cccc3c2c(c(-c2ccccc2)c2ccccc23)C1=O not satisfied

Query: Problem: For the molecule CS(=O)(=O)O.O=C1c2cccc3c2c(cc2ccc(F)cc23)C(=O)N1CCCCNCCCN1C(=O)c2cccc3c2c(cc2ccc(F)cc23)C1=O , is IC50 under 0.2 mg/L?
Response: not satisfied

Query: CS(=O)(=O)O.CS(=O)(=O)O.C[C@@H](CNCCNC[C@H](C)N1C(=O)c2cc([N+](=O)[O-])cc3c2c(cc2cccnc23)C1=O)N1C(=O)c2cc([N+](=O)[O-])cc3c2c(cc2cccnc23)C1=O ?
Response: satisfied

Query: CS(=O)(=O)O.CS(=O)(=O)O.CS(=O)(=O)O.Nc1cc2c3c(cc4ccccc4c3c1)C(=O)N(CCCCNCCCN1C(=O)c3cc(N)cc4c3c(cc3ccccc34)C1=O)C2=O ?
Response: not satisfied
